Molecular target: full length recombinant Pim-2 protein (Homo sapiens, UniProt Q9P1W9)
Construct: by full length recombinant Pim-1, Pim-2, or Pim-3 protein; hexahistidine tag followed by a thrombin cleavage site (N); made in house; host or cells: Sf9 (baculovirus) or E. coli (pET28)
Sequence (Q9P1W9 whole entry): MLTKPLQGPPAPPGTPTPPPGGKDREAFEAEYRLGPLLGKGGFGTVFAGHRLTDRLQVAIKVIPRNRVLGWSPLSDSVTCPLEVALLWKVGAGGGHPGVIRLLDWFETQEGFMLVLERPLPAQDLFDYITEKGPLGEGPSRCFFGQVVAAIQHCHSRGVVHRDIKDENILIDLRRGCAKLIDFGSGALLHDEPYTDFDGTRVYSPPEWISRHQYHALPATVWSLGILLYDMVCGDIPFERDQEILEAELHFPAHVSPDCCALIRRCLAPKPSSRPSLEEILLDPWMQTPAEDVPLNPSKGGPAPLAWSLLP
Experiment: Pim-2 enzyme assay (HTRF, phosphorylation of biotinylated-BAD (S112) peptide)
Assay type: biochemical
Conditions: read-out: Pim2_IC50
Listed here: items and their measured IC50.
I only need the number, in nM, no unit after it.

Form: item c1cc2[nH]cc(-c3cncc(O[C@@H]4CCCNC4)n3)c2cc1-c1cnc2c(c1)CCCN2 [Example 335] ; test system full length recombinant Pim-2 protein (Homo sapiens, UniProt Q9P1W9); IC50: 72

Form: item Nc1ccc(-c2ccc3[nH]cc(-c4cncc(O[C@@H]5CCCNC5)n4)c3c2)cc1OC(F)(F)F [Example 341] ; test system full length recombinant Pim-2 protein (Homo sapiens, UniProt Q9P1W9); IC50: 69

Form: item CN(C)c1cnc(-c2ccc3[nH]cc(-c4cncc(O[C@@H]5CCCNC5)n4)c3c2)cn1 [Example 319] ; test system full length recombinant Pim-2 protein (Homo sapiens, UniProt Q9P1W9); IC50: 68

All values here come from patent US9090593B2.
